System: breast cancer cell strain MD468
Test: Cancer cell growth inhibition / cell viability
Assay type: cell-based
Conditions: after 48 hours of drug administration
readout name: IC50

line notation: NCCCCNCCCN
readout name: IC50
endpoint result: 46.1 µM
